System: P. falciparum 3D7 growth, pLDH absorbance
assay-notes: blood-stage malaria parasite growth potency – strain 3D7, dose response (AID 2305)
pIC50: −log10 of the molar value.
readout-kind: pIC50

molecule="COC(=O)c1ccc(CCC(C)NCC(O)c2cccc(Cl)c2)cc1 (stereo unspecified)" experimental_value=6.17
molecule=CCCCCC(C)(C)NC[C@@H](O)[C@H](Cc1ccccc1)NC(=O)c1cc(NCC)cc(N2CCCC2=O)c1 experimental_value=6.17
molecule=O=C(Nc1ccc(-c2ccc(-c3nc4ccc(C(F)(F)F)cc4[nH]3)s2)cc1)c1ccoc1 experimental_value=6.07
molecule="CCN(CC(C)O)C(=O)c1ccc(-c2cccc(-c3nc4c(C)cccc4[nH]3)c2)cc1 (stereo unspecified)" experimental_value=6.19
molecule="COc1ccc2nc(NC3=NC4(c5ccccc5)N=C(Nc5nc6ccc(OC)cc6[nH]5)NC4(c4ccccc4)N3)[nH]c2c1 (stereo unspecified)" experimental_value=6.70
molecule="O=C(Oc1ccc(C2CNCCc3c2cc(OC(=O)c2ccc(O)cc2)c(OC(=O)c2ccc(O)cc2)c3Cl)cc1)c1ccc(O)cc1 (stereo unspecified)" experimental_value=6.01
molecule=CN1CCC(c2c[nH]c3ccc(NC(=O)Nc4ccc(-c5ccncc5)c(Cl)c4Cl)cc23)CC1 experimental_value=6.15
molecule=CCc1cc(=O)[nH]c(-n2nc(C)cc2NC(=O)CC(c2ccccc2)c2ccccc2)n1 experimental_value=6.02
molecule=COc1ccc(CNc2nc(Nc3cccc(C#N)c3)nc(Nc3cccc(C#N)c3)n2)cc1Cl experimental_value=6.74
molecule=O=C(Nc1cccc(C(F)(F)F)c1)NC1CCN(c2ccnc3cc(Cl)ccc23)CC1 experimental_value=6.54
molecule=COc1ccc(OC)c(-c2cccc(-c3cccc(NC(=O)c4ccc([N+](=O)[O-])o4)c3)n2)c1 experimental_value=6.43

---

Entries annotated with measured pIC50
Tested on: P. falciparum 3D7 growth, pLDH absorbance
assay-notes: blood-stage malaria parasite growth potency – strain 3D7, dose response (AID 2305)
pIC50: −log10 of the molar value.
readout-kind: pIC50

compound="O=C(NC1CCN(CCCOc2ccnc3cc(Cl)ccc23)C1)c1ccc(Br)cc1 (configuration not stated)" experimental_value=5.99
compound="O=C(Nc1ccc(F)cc1)NC1CCN(c2ccnc3cc(Cl)ccc23)C1 (configuration not stated)" experimental_value=6.66
compound=COc1cc2nc(N3CCC(CNC(=O)c4ccc(-c5ccc(C(=O)N(C)C)cc5)c(OCCO)c4)CC3)nc(N)c2cc1OC experimental_value=6.14
compound="CN1CCc2cc(Br)c(O)cc2C1Cc1ccccc1Cl (configuration not stated)" experimental_value=6.17
compound="C=C[C@H]1CN(CCCCCCC)CC[C@H]1CC(O)Cc1ccnc2cc(O)c(OC)cc12 (some centres not stated)" experimental_value=6.09
compound=Cc1ccc(NC(=O)NC2CCN(c3ccnc4cc(Cl)ccc34)CC2)cc1 experimental_value=6.49
compound=N#Cc1ccc(N[C@@H](CC2CCCCC2)C(=O)NCc2cc(Cl)cc(Cl)c2)c2ccccc12 experimental_value=5.96
compound=COc1ccc2ncc(Cl)c([C@H](O)CN3CCC(NCc4cc5c(cn4)OCCO5)CC3)c2c1 experimental_value=6.92
compound=CC(=O)c1cc(N2CCOCC2)ccc1N experimental_value=6.04
compound=Cc1cnc(Nc2cccc(CCN3CCOCC3)c2)nc1NC(C)C experimental_value=6.13
compound=O=S(=O)(NCCN1CCCC1)c1ccc(-c2ccc(CNC3Cc4ccccc4C3)cc2)s1 experimental_value=6.23
compound=FC(F)(F)c1cccc(Nc2nc(-c3ccccc3)nc3ncccc23)c1 experimental_value=6.10

---

Test system: P. falciparum 3D7 growth, pLDH absorbance
assay-notes: blood-stage malaria parasite growth potency – strain 3D7, dose response (AID 2305)
readout-kind: IC50 (nM)

compound=CC(C)Cn1ncc2c3c(N)nc(N)nc3ccc21 unit_abbreviation=nM experimental_value=160
compound="CC1(C)CCCN(C(=O)Cc2ccc3c(c2)CCCC3)C1CN1CC=CC1 (stereo not given)" unit_abbreviation=nM experimental_value=720
compound=Nc1nc(N)c2c(ccc3[nH]c(-c4ccccc4Cl)nc32)n1 unit_abbreviation=nM experimental_value=230
compound=O=C(N[C@@H](CC1CCCCC1)C(=O)NCCN1CCOCC1)c1ccc(O)c(-c2ccc(Cl)c(Cl)c2)c1 unit_abbreviation=nM experimental_value=180
compound=COc1ccc2nccc([C@@H](O)CN3CCC(NCc4cc5ccccc5o4)CC3)c2c1 unit_abbreviation=nM experimental_value=660
compound=COc1ccc2ncc(F)c(CCN3CCC[C@H](CNCc4ccc5c(n4)NC(=O)CS5)C3)c2n1 unit_abbreviation=nM experimental_value=970
compound="Oc1c(C(Nc2nc3ccccc3s2)c2ccc(OC(F)F)cc2)ccc2cccnc12 (stereo not given)" unit_abbreviation=nM experimental_value=570
compound=COc1ccc(-c2cccc(NC(=O)c3cccc(Cl)c3)c2)cc1CN1CCNCC1 unit_abbreviation=nM experimental_value=800
compound="Cn1c(NC(=O)C2CCC(CNC(=O)c3ccc(O)c(-c4cccc([N+](=O)[O-])c4)c3)CC2)nc2ccccc21 (stereo not given)" unit_abbreviation=nM experimental_value=980
compound=O=C(Nc1cccc(CN2CCCN(Cc3cccc(Cl)c3)CC2)c1)c1ccc(-c2ccccc2)cc1 unit_abbreviation=nM experimental_value=1230
compound="COc1cc(OC)nc(C(Sc2ccc(NC(=O)c3cccs3)cc2)c2ccccc2)n1 (stereo not given)" unit_abbreviation=nM experimental_value=60
compound=Cc1nnsc1C(=O)Nc1ccc(-c2cccc(-c3nc4ccc(C(F)(F)F)cc4[nH]3)c2)cc1 unit_abbreviation=nM experimental_value=840
compound=O=C(Nc1cccc(-c2ccc(-c3nc4ccc(C(F)(F)F)cc4[nH]3)cc2)c1)c1ccncc1 unit_abbreviation=nM experimental_value=340
compound=Cc1ccc(CN2CCC(C(=O)Nc3ccc(-c4cc5ccccc5[nH]4)cc3)CC2)o1 unit_abbreviation=nM experimental_value=1420
compound="CCC1(C)N=C(N)N=C(N)N1c1ccccc1 (stereo not given)" unit_abbreviation=nM experimental_value=790

Attribution: PubChem BioAssay AID2305
